k2 (step 2, forward): recorded values
molecular target: HIV-1 YU2 gp120 (HIV-1 YU2, UniProt P35961 32-498); test: SPR

BINDER	k2 (step 2, forward) [M⁻¹ s⁻¹]
MVN_G85Q (natural protein) MPNFSHTCSSINYDPDSTILSAECQARDGEWLPTELRLSDHIGNIDGELQFGDQNFQETCQDCHLEFGDGEQSVWLVCTCQTMDQEWKSTQILLDSQIDNNDSQLEIG	0.0089
MVN_G43E (natural protein) MPNFSHTCSSINYDPDSTILSAECQARDGEWLPTELRLSDHIENIDGELQFGDQNFQETCQDCHLEFGDGEQSVWLVCTCQTMDGEWKSTQILLDSQIDNNDSQLEIG	0.0049
MVN_M83R (natural protein) MPNFSHTCSSINYDPDSTILSAECQARDGEWLPTELRLSDHIGNIDGELQFGDQNFQETCQDCHLEFGDGEQSVWLVCTCQTRDGEWKSTQILLDSQIDNNDSQLEIG	0.0076
MVN_G43E/G85Q (natural protein) MPNFSHTCSSINYDPDSTILSAECQARDGEWLPTELRLSDHIENIDGELQFGDQNFQETCQDCHLEFGDGEQSVWLVCTCQTMDQEWKSTQILLDSQIDNNDSQLEIG	0.0077
